Assignment: determine reported IC50 for the given compounds.

Task: Form field: IC50 recorded for O=C1CCc2cc(Nc3ncc(C(F)(F)F)c(Nc4ccccc4CO)n3)ccc2N1 with ULK1 (Homo sapiens) (enter value)
Result: < 200 nM

Task: Write down the reported IC50 of O=C1CCc2cc(Nc3nc(NC4CC4)c4ccccc4n3)ccc2N1 , test system: ULK1 (Homo sapiens).
Result: > 2000 nM

Task: Item CCN1CCOc2cc(Nc3nc(Nc4ccc5c(c4)CCC(=O)N5)ncc3Br)cnc21 with ULK1 (Homo sapiens) - IC50?
Result: < 200 nM

Task: # value lookup — system ULK1 (Homo sapiens), readout IC50, item COc1cc(Nc2ncc(Br)c(Oc3cccc4c3CCCC4)n2)cc(OC)c1OC [Compound 330a]
Result: > 2000 nM

====

Would you mind telling me the reported IC50 of each entry?
- Assayed target: UniProt O75385

Task: Using the record for CNC(=O)c1ccc(OC)cc1Oc1ncc(Br)c(Nc2cc(OC)c(OC)c(OC)c2)n1 [Compound 318b] , report its IC50.
Result: > 2000 nM

Task: I am curious: what IC50 value has been reported for CC(=O)Nc1ccccc1Oc1nc(Nc2ccc3c(c2)OCO3)ncc1Br [Compound 321a] ?
Result: > 2000 nM

Task: Any idea what IC50 was measured for CNC(=O)c1ccccc1Oc1nc(Nc2ccc(Cl)c(Cl)c2)ncc1C(F)(F)F [Compound 108a] ?
Result: > 2000 nM

Task: Recorded IC50 for Oc1nc(Nc2cnc3[nH]ccc3c2)ncc1C(F)(F)F , please?
Result: > 2000 nM

Task: Requested field: IC50. Item: Oc1ncc(C(F)(F)F)c(Nc2ccccc2N2CCOCC2)n1 [Compound 118c]
Result: > 2000 nM

Task: Which IC50 value belongs to O=C1CCc2cc(Nc3ncc(C(F)(F)F)c(OC4CCC4)n3)ccc2N1 ?
Result: < 200 nM

Task: State the recorded IC50 for this entry: O=C1CCc2cc(Nc3ncc(C(F)(F)F)c(/C=C/c4ccccc4)n3)ccc2N1
Result: < 200 nM

Task: Item COc1ccc(C)c(Nc2ncc(Cl)c(Nc3ccc(OC)nc3)n2)c1 has what recorded IC50?
Result: > 2000 nM

Task: Endpoint output: IC50 of O=C1CCc2cc(Nc3nc(Oc4ccccc4)ncc3C(F)(F)F)ccc2N1 [Compound 300b] . Value?
Result: > 2000 nM

Task: GET /values?readout=IC50&item= CNC(=O)c1ccccc1Oc1nc(Nc2cccc(OC)c2OC)ncc1C(F)(F)F [Compound 115a]
Result: > 2000 nM

Task: Recorded IC50 of CC1CN1c1nc(Nc2ccc3c(c2)CCC(=O)N3)ncc1C(F)(F)F (stereo not drawn) [Compound 183a] , please.
Result: > 2000 nM

Task: Can you look up the measured IC50 of COc1ccc(Nc2nc(Nc3ccc4[nH]ccc4c3)ncc2Br)cn1 for me?
Result: < 200 nM

Task: Requested field: IC50. Item: O=C1CCc2cc(Nc3ncc(C(F)(F)F)c(OC4Cc5ccccc5C4)n3)ccc2N1 [Compound 180a]
Result: < 200 nM

Task: For the molecule COc1cc(Nc2ncc(Br)c(Oc3ccccc3)n2)cc(OC)c1OC , what IC50 is on record?
Result: < 200 nM

Task: Look up IC50 for this molecule: Cc1ccc(Nc2nc(Nc3ccc4c(c3)CCC(=O)N4)ncc2C(F)(F)F)cc1C
Result: < 200 nM

Task: Entry under review: CNC(=O)c1ccccc1Nc1nc(Nc2ccc3c(c2)OCCO3)ncc1Cl . Reported IC50?
Result: < 200 nM

Task: Which measured IC50 value corresponds to FC(F)(F)c1cnc(Nc2cncnc2)nc1NC1CC1 ?
Result: < 200 nM

Task: Return reported IC50; argument: O=C1CCc2cc(Nc3nc(OC4Cc5ccccc5C4)ncc3C(F)(F)F)ccc2N1 [Compound 180b]
Result: > 2000 nM

====

- Assayed target: ULK1 (Homo sapiens)
- Sequence (O75385 1-1050): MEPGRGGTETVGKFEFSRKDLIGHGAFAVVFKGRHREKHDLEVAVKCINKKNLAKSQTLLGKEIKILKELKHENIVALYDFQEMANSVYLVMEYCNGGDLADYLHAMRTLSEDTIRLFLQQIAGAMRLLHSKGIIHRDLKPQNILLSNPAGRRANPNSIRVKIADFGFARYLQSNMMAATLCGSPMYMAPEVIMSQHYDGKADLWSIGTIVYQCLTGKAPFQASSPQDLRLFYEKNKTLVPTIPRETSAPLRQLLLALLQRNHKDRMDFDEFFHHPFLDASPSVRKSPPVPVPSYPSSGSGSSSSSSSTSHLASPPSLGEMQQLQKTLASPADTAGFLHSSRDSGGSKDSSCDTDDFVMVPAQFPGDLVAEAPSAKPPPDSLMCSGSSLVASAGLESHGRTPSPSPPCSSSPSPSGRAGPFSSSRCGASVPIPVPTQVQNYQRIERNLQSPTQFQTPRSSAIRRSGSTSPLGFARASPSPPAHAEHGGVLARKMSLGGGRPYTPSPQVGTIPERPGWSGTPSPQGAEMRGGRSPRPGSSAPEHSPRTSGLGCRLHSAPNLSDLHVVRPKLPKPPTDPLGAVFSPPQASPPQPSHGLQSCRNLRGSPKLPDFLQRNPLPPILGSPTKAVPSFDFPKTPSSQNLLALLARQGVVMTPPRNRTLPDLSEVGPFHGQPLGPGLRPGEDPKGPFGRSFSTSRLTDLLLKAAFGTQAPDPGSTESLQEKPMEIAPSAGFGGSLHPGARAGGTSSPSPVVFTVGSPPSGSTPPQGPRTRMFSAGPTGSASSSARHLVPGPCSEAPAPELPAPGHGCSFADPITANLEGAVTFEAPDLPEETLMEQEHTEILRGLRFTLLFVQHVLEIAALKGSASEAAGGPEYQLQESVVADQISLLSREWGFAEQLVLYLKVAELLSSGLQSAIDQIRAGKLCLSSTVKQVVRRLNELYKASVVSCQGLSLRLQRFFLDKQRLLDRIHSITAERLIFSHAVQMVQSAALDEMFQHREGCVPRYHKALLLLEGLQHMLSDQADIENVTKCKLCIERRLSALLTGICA
pIC50: −log10 of the molar value.
Metric: pIC50

Task: # pIC50 lookup, item O=C1CCc2cc(Nc3ncc(C(F)(F)F)c(NC4CNC4)n3)ccc2N1 [Compound 198a]
Result: 5.70 to 6.70

Task: What pIC50 value was documented for this compound, COc1cc(Nc2ncc(Br)c(-n3nnc4ccccc43)n2)cc(OC)c1OC [Compound 331a] ?
Result: < 5.70

Task: Return reported pIC50; argument: N#Cc1cnc(NC2CC2)nc1Nc1ccc2c(c1)CCC(=O)N2
Result: < 5.70

Task: State the recorded pIC50 for this entry: COc1cc(N2CCOCC2)ccc1Nc1ncc(C(F)(F)F)c(Nc2ccc3c(c2)CCC(=O)N3)n1 [Compound 123b]
Result: > 6.70

Task: Look up pIC50 for this compound: O=C1CCc2cc(Nc3ncc(C(F)(F)F)c(Nc4ccc5c(c4)OC(F)(F)O5)n3)ccc2N1 [Compound 178a]
Result: > 6.70

Task: Record request: pIC50 value, item COc1cc(Nc2nc(-n3nnc4ccccc43)ncc2Br)cc(OC)c1OC [Compound 331b]
Result: 5.70 to 6.70

Task: Sample COc1cccc(Nc2ncc(Cl)c(Nc3cccc(OC)c3)n2)c1 [Compound 143b] — what was its pIC50?
Result: > 6.70

Task: pIC50 for O=C1CCc2cc(Nc3ncc(C(F)(F)F)c(Nc4cc(C5CCC5)[nH]n4)n3)ccc2N1 ?
Result: > 6.70

====

- Assayed target: UniProtKB O75385
- Sequence (O75385 1-1050): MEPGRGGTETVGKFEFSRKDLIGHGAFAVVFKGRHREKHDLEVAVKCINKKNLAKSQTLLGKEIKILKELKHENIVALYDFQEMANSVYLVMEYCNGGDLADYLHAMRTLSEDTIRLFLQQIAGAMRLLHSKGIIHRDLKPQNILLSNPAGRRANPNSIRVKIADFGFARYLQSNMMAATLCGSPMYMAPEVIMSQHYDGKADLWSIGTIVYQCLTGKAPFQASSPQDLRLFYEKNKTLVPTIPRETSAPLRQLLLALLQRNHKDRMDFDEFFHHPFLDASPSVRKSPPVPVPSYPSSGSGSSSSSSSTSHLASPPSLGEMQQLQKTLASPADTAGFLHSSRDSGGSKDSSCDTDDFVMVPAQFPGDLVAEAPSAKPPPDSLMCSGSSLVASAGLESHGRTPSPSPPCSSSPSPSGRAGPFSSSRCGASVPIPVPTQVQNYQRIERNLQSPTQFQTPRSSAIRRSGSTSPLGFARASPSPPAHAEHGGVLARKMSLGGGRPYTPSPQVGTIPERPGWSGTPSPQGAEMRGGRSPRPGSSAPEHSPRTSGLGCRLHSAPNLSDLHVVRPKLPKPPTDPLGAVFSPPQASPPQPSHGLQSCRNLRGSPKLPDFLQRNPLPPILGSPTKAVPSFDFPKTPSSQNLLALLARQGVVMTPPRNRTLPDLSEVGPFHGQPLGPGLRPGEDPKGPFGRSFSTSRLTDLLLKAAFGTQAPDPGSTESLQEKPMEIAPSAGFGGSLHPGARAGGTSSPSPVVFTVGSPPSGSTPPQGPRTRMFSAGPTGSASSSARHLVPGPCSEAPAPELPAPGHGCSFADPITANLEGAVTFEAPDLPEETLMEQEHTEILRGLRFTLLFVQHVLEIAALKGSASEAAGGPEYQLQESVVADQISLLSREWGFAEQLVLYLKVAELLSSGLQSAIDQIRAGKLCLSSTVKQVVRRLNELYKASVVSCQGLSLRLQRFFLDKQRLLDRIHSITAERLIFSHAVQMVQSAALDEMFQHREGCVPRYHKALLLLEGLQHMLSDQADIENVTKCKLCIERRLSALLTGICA
Metric: IC50

Task: // lookup IC50 for COc1cc(Nc2ncc(Br)c(Oc3ccccc3CN(C)C)n2)cc(OC)c1OC
Result: > 2000 nM

Task: Could you share which IC50 value was measured for O=C1CCc2cc(Nc3ncc(C(F)(F)F)c(NC4CCCC4)n3)ccc2N1 [Compound 160a] ?
Result: < 200 nM

Task: GET /values?readout=IC50&item= COc1cccc(Nc2nc(Nc3ccc4c(c3)CCC(=O)N4)ncc2Cl)c1 [Compound 143a]
Result: < 200 nM

Task: Fill blank: measured IC50 of the molecule COCCNc1ncc(C(F)(F)F)c(Nc2ccc3c(c2)CCC(=O)N3)n1 [Compound 151b] is ____.
Result: < 200 nM

Recorded values, source patent US20230130766A1.
